- assay.name: reducers of endogenous Her2 protein level, primary screen, SKBR3 breast tumor cells, AlphaScreen, ATP viability (AID 461);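 also: percent of carrier control wells set as 100% viability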
- assay.context: 18-24 h, measured here: SKBR3 viability, ATP luminescence, at 10 µM
quantity: viability
Answer with the value and then the unit.

Consider the reported viability for these compounds:
Cc1cc(-c2ccccc2)c(C#N)c(N)n1 | 114%
Cc1ccc(-c2noc(C3CCCN(C(=O)c4ccc(F)cc4F)C3)n2)cc1 (stereo unspecified) | 99%

stdin: Provide measured viability value, entry: CC(C)CC(c1nnnn1C1CCCC1)N1CCN(c2ccccc2F)CC1 (stereo unspecified)
stdout: 92.5%

stdin: Supply measured viability of O=C(Nc1ccccc1)c1cccnc1N1CCOCC1 in your reply.
stdout: 94%

stdin: Determine from records and report viability for CCOc1cc(C2C(C(=O)c3ccccc3)=C(C(=O)OC)Nc3nnnn32)ccc1O (stereo unspecified)
stdout: 113%

stdin: Given COc1cc(-c2nc(-c3cccc(C(F)(F)F)c3)no2)cc(OC)c1OC , respond with its viability.
stdout: 102%

stdin: Fill in viability for record CCc1ccc2nc(NC(=O)CSCc3c(C)noc3C)sc2c1
stdout: 88.5%

stdin: Dear colleague, please send me the reported viability for O=C(CCN1CCN(c2ccc(F)cc2)CC1)Nc1ccccc1F when you can.
stdout: 91.5%

stdin: Dear colleague, please send me the reported viability for CCc1nnc2sc(-c3cc(-c4ccccc4)nc4ccccc34)nn12 when you can.
stdout: 71%

stdin: Consider the compound CC1CCN(CCCNC(=O)c2cn(C)c3ccc(S(=O)(=O)N4CCCC4)cc3c2=O)CC1 and give its recorded viability.
stdout: 90.5%

stdin: Please give the documented viability of CCOC(=O)C(C)(C)Sc1nc2c(cnn2-c2ccc(C)cc2)c(=O)[nH]1
stdout: 99%

* * *

- assay.name: 384-well plate pilot, post-Golgi transport modulator project, inhibition of yeast transport mutant growth (AID 636)
- assay.context: absorbance 615 nm, about 18 h, stronger effect = higher value
quantity: inhibition (%)
Express the result in % but write the number alone.

Cc1cc(C)n(CC(=O)n2c3c(c4ccccc42)CCCC3)n1 | -5.53
COc1ccc2oc(=O)c(C(=O)N3CCN(c4ccccc4F)CC3)cc2c1 | -6.4
CC(c1nnc(SCC(=O)Nc2sccc2C#N)n1-c1ccc(Cl)cc1)N(C)C (stereo unspecified) | -3.68
O=C(NCc1ccccc1)N1CCn2c(nc3ccccc32)C1 | -3.73
O=C(c1ccco1)N1CCN(S(=O)(=O)c2ccc(Oc3ccccc3)cc2)CC1 | -1.35

stdin: Look up inhibition of Cc1cc2ncn(C(=O)c3c(-c4ccccc4)noc3C)c2cc1C and report it.
stdout: 0.13

stdin: Kindly indicate its recorded inhibition. Item: COc1cc2nc(C3CCC3)n(NC(=O)C3CCCC(OC)C3)c(=O)c2cc1OC (stereo unspecified)
stdout: -9.86

stdin: Identify measured inhibition associated with CS(=O)(=O)N(Cc1nc2sc3c(c2c(=O)[nH]1)CCCC3)C1CCCCC1
stdout: -4.8

stdin: Note down inhibition recorded for CCCCNC(=O)c1nc2ncc(Br)cn2n1
stdout: -3.51

stdin: Name the recorded inhibition of the item CC(=O)Nc1ccc(S(=O)(=O)NCC2CCC(C(=O)NCCCN3CCCC3=O)CC2)cc1 (stereo unspecified) in your answer.
stdout: -4.13

stdin: Check the records and state inhibition for N=c1c(C(=O)NCc2ccc3c(c2)OCO3)cc2c(=O)n3ccccc3nc2n1Cc1cccnc1
stdout: -2.47

* * *

- assay.name: HUVEC growth inhibition – cell-based, human, primary screen (AID 575);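 also: 100% = median of untreated cell wells with 0.1% DMSO on each plate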
- assay.context: HUVEC proliferation, CellTiter-Glo luminescence, 72 h; at 10 µM; stronger effect = lower value
quantity: viability (%)
Could you give me the number in %? Just the number is fine.

The following molecules have reported results that may help.
COc1ccc(C2C(C(=O)c3sc(C)nc3C)=C(O)C(=O)N2CCN2CCOCC2)cc1 (configuration not stated) | 111
Cc1nc2ccccc2n1CCC(=O)Nc1cccc(F)c1 | 93.6
O=C(CN(Cc1ccc2c(c1)OCO2)C(=O)CNS(=O)(=O)c1ccccc1)NCc1ccco1 | 107
O=C(CSc1nnc(-c2cccnc2)o1)OC1CCCCC1 | 95.8
Cc1[nH]c(=O)[nH]c(=O)c1S(=O)(=O)N1CCCC(C(=O)NCc2ccco2)C1 (configuration not stated) | 96.3

stdin: Identify the reported viability for the following entry. Cc1cc(-c2ccccc2)c2nncn2n1
stdout: 116

stdin: State its viability: Cc1ccccc1NC(=O)C1CCN(c2cnccn2)CC1
stdout: 89.2

stdin: Hello, please tell me recorded viability for this one: CCOC(=O)C(NC(=O)c1ccccc1)(Nc1cc(C)on1)C(F)(F)F (configuration not stated)
stdout: 101

* * *

- assay.name: reversal of MRP1-mediated doxorubicin resistance, pilot screen, H69AR cells, doxorubicin co-treatment (AID 601)
- assay.context: H69AR cells + 2 uM doxorubicin, CellTiter-Glo, 72 h; at 10 µM; stronger effect = higher value
Each record here notes measured differential viability (reversal).
Numeric answer only, unit % assumed.

Cc1cc(C(=O)COC(=O)C2COc3ccccc3O2)c(C)n1CC1CCCO1 (configuration not stated) | 0.315
COc1cc(OC)cc(-n2nnnc2SCC(=O)N2CCCC2)c1 | -4.62

stdin: Report differential viability (reversal) for CCn1c2ccccc2c2cc(NC(=O)CSc3nnc(C4CC4)n3Cc3ccco3)ccc21
stdout: -16.2

stdin: Entry O=C(O)C1CC=CCC1C(=O)Nc1ccc(S(=O)(=O)N2CCCc3ccccc32)cc1 (configuration not stated) needs its differential viability (reversal) filled in; supply it.
stdout: 4.55

stdin: Quote differential viability (reversal) reported for CCCCC(c1nnnn1CS(=O)(=O)c1ccc(C)cc1)N1CCN(c2ccccc2)CC1 (configuration not stated) please.
stdout: -0.75

stdin: Using known records, supply differential viability (reversal) for Cc1c(C#N)sc2nc(-c3ccccc3)nc(N3CCCC3)c12
stdout: -11.2

stdin: Specify measured differential viability (reversal) for Oc1cc(NCc2cccnc2)ccc1-c1nc2ccccc2o1 .
stdout: -7.37

stdin: For the compound CC(=O)N1CCC(N(C(=O)Nc2ccc(C)c(C)c2)C2CCCC2)CC1 , give its reported differential viability (reversal).
stdout: -3.42

* * *

Known inhibition of a selection of molecules
- assay.name: growth suppression of yeast trafficking mutant, preliminary HTS, modulators of trafficking downstream of Golgi apparatus project, 1536-format plate, OD 615 nm (AID 637)
- assay.context: yeast transport mutant growth, absorbance 615 nm, 18 h; stronger effect = higher value
Give just the numeric value; % need not be written.

COc1cc2c(C)nc(C)c(C#N)c2cc1OC | -2.74
COc1ccc2[nH]c(=O)c(CN(Cc3cccs3)S(=O)(=O)c3cccc4nsnc34)cc2c1 | 1.43
N#CC1=C(N)SC(N)=C(C#N)C1CCc1ccccc1 | -0.36
O=C(CN(C(=O)CCNC(=O)c1ccco1)c1ccccc1)NC1CCCC1 | 33.5
OCCn1c(-c2ccc3c(c2)OCO3)csc1=Nc1ccccc1 | 5.9

stdin: Provide one value: measured inhibition of Cc1ccc(N(CC(=O)NCC2CCCO2)S(C)(=O)=O)cc1Cl (stereo unspecified)
stdout: -3

stdin: Please list inhibition recorded for the molecule CCN1CCN(C(=O)c2ccc3c(=O)n(C4CCCC4)c(=S)[nH]c3c2)CC1
stdout: 19.5

* * *

- assay.name: reversal of MRP1-mediated doxorubicin resistance, pilot screen, H69AR cells, doxorubicin co-treatment (AID 601)
- assay.context: H69AR cells + 2 uM doxorubicin, CellTiter-Glo, 72 h; at 10 µM; stronger effect = higher value
The following compounds are listed with their measured differential viability (reversal) values.
# unit: % | format: bare number

Examples with their reported differential viability (reversal) follow.
Cc1ccc(-n2nnnc2SCC(=O)c2cc(C)n(CC3CCCO3)c2C)cc1 (configuration not stated) | -9.62
CCOC(=O)c1ccc(NC(=O)NC(C)C2CCCO2)cc1 (configuration not stated) | 5.2
COc1ccc(CCNC(=O)C2CCN(Cc3nc(-c4cccc(Cl)c4)oc3C)CC2)cc1OC | -27.2
COc1cccc(CNc2cccc3cccnc23)c1O | -14.6
CCc1nc2c(cnn2-c2ccc(Cl)cc2)c(=O)n1-c1ccc2c(c1)OCCO2 | -4.38
Cc1nc(N2CCOCC2)[nH]c(=O)c1CCC(C)C | 0.88

stdin: Look up and report measured differential viability (reversal) for this entry: COCCn1c(SCC(=O)N(C(C)C)C(C)C)nnc1-c1cc2ccccc2cc1O
stdout: 0.38

stdin: For the compound Cc1ccc(S(=O)(=O)N2CCOCC(=O)NCCOCCNC(=O)COCC2)cc1 , report differential viability (reversal).
stdout: 8.95

stdin: Return reported differential viability (reversal). Input compound: CCOC(=O)CSc1nnc(-c2cccnc2)n1Cc1ccccc1
stdout: 0.125

stdin: Identify measured differential viability (reversal) corresponding to CCOC(=O)CSc1nc2c(c(-c3ccc(C)o3)c1C#N)CCCC2
stdout: 6.76

stdin: Kindly indicate its recorded differential viability (reversal). Item: CC(C)(C)OC(=O)N1CCCC1C(=O)N1CCc2ccccc21 (configuration not stated)
stdout: -4.58

stdin: Give the value of differential viability (reversal) reported for the following: CCOc1ccc2[nH]c(=O)c(C(c3nnnn3CC3CCCO3)N3CCc4ccccc4C3)cc2c1 (configuration not stated)
stdout: 36.5

stdin: Provide differential viability (reversal) value for the following compound: CSc1nnc2c3ccccc3n(CCc3ccccc3)c2n1
stdout: 3.33

stdin: Identify the reported differential viability (reversal) for the following entry. CSc1nc(C)cc(Oc2ccc(=O)n(C)n2)n1
stdout: 11.8

stdin: // Input: CCOC(=O)c1ccc(-c2c(C(=O)OCC)oc3cc(O)c(CC)cc3c2=O)o1 . Output its differential viability (reversal) only.
stdout: -19.3

stdin: Report differential viability (reversal) for O=C(CN(Cc1ccco1)C(=O)CNS(=O)(=O)c1ccc(Cl)cc1)NCc1ccc(F)cc1
stdout: -5.12

stdin: Quickly give me recorded differential viability (reversal) for COc1cc2c(cc1OC)C(C)N(C(=O)c1cc3n(n1)C(C(F)(F)F)CC(c1ccco1)N3)CC2 (configuration not stated)
stdout: -14.3

stdin: Tell us which differential viability (reversal) value is on record for CCOC(=O)CSC1=C(C#N)C(=O)NC(c2ccc(OC)c(OC)c2)S1 (configuration not stated)
stdout: -1.72
